// reported protein stability index per item
Tested on: Saccharomyces cerevisiae
Experiment: protein stability index of tFT-peptide fusion (C-terminal peptide) (PSI (0-1 scale)); higher = more stable (slower turnover)
Settings: genetic background: wild type; temperature: 30 C

Example entries and their recorded answers appear below.
CHAIN_SEQUENCE | RECORDED_RESULT
LKQIEMISGFSL [ADF1 C-terminal 12 aa] | 0.683
DPTTNGSIIKNE [IXR1 C-terminal 12 aa] | 0.701
EIIRVGPQESII [MRP49 C-terminal 12 aa] | 0.749

The value of protein stability index measured for the sequence ANFNDFYDAFYN [RSC30 C-terminal 12 aa] turned out to be 0.707

The value of protein stability index measured for the sequence DSYKLMHSHIHP [IZH1 C-terminal 12 aa] turned out to be 0.672

The value of protein stability index measured for the sequence PKWCSTMCSTAT [YDR445C C-terminal 12 aa] turned out to be 0.743

The value of protein stability index measured for the sequence DVERVIRNAGRS [HSL1 C-terminal 12 aa] turned out to be 0.674

The value of protein stability index measured for the sequence MNAAENEVKKEK [SUR2 C-terminal 12 aa] turned out to be 0.669

###

// reported protein stability index per item
System: Saccharomyces cerevisiae
Assay: protein stability index of tFT-peptide fusion in deletion strain of DAS1 (PSI (0-1 scale)); higher = more stable (slower turnover)
Answer as a number with no unit attached.

The value of protein stability index measured for the sequence `FSMYWTFRYWVN` turned out to be 0.399

###

Test system: Saccharomyces cerevisiae
Assay: protein stability index of tFT-peptide fusion (C-terminal peptide) (PSI (0-1 scale)); higher = more stable (slower turnover)
Settings: genetic background: wild type; temperature: 30 C
// reported protein stability index per item
Answer as a number with no unit attached.

Example entries and their recorded answers appear below.
CHAIN_SEQUENCE | RECORDED_RESULT
VAVRGGSGDWGR | 0.713
LSTFFIFLRILR | 0.367
CDSRLSGVFKFG | 0.682

// next entry
The value of protein stability index measured for the sequence `PPASRPPPPTFL` turned out to be 0.699

###

Test system: Saccharomyces cerevisiae
Experiment: protein stability index of tFT-peptide fusion (C-terminal peptide) (PSI (0-1 scale)); higher = more stable (slower turnover)
Conditions: genetic background: das1 deletion; temperature: 30 C
Entry flag: Condition met if protein stability index reaches 0.7; Condition not met if it does not.

CHAIN_SEQUENCE | LABEL_VALUE
RIYHVYGRFLIH [NCA2 C-terminal 12 aa] | Condition not met

**Query** Please check the record YVIVFFVYDSLL [YOL046C C-terminal 12 aa] and state if its protein stability index is at or above 0.7.
**Result** Condition not met

**Query** Please check the record SKYNCNIPACCV [YLR122C C-terminal 12 aa] and state if its protein stability index is at or above 0.7.
**Result** Condition not met

**Query** Please check the record TDGLNVWKTISV [RRB1 C-terminal 12 aa] and state if its protein stability index is at or above 0.7.
**Result** Condition not met

**Query** Please check the record APEFLDWLDEEN [HEM2 C-terminal 12 aa] and state if its protein stability index is at or above 0.7.
**Result** Condition met

**Query** Please check the record KLRREDEIIVYA [REC8 C-terminal 12 aa] and state if its protein stability index is at or above 0.7.
**Result** Condition not met

**Query** Please check the record LNRKEESDSFVA [CHS3 C-terminal 12 aa] and state if its protein stability index is at or above 0.7.
**Result** Condition not met

**Query** Please check the record HFANFKRTIEEK [AMD1 C-terminal 12 aa] and state if its protein stability index is at or above 0.7.
**Result** Condition met

###

Test system: Saccharomyces cerevisiae
Assay: protein stability index of tFT-peptide fusion (C-terminal peptide) (PSI (0-1 scale)); higher = more stable (slower turnover)
Details: genetic background: das1 deletion; temperature: 30 C
Entry flag: Fulfilled if protein stability index reaches 0.4; Not fulfilled if it does not.

Use these answered entries as a reference point.
CHAIN_SEQUENCE | LABEL_VALUE
PTAGFFGLLVLV | Not fulfilled
YYVIFHLFSFLI | Not fulfilled
RGCFVLRKTHLL | Fulfilled
LLCGVLFFFWVV | Not fulfilled
QIGSMLGVQGVG | Fulfilled
TGVPNPSVAVMC | Fulfilled

**Query** Please check the record `VQTVRLVFQVLA` and state if its protein stability index is at or above 0.4.
**Result** Not fulfilled

**Query** Please check the record `SGRGFSFVLCTV` and state if its protein stability index is at or above 0.4.
**Result** Not fulfilled

###

Tested on: Saccharomyces cerevisiae
Test: protein stability index of tFT-peptide fusion (C-terminal peptide) (PSI (0-1 scale)); higher = more stable (slower turnover)
Conditions: genetic background: wild type; temperature: 30 C
Entry flag: TRUE if protein stability index reaches 0.3; FALSE if it does not.

CHAIN_SEQUENCE | LABEL_VALUE
SRLVSRLGLYLS | FALSE
RFCRVERAILLR | TRUE
TLDWKFGWGGIG | TRUE
LLLRSSRLRVLS | FALSE

**Query** Please check the record `VNTLCCVFRCNL` and state if its protein stability index is at or above 0.3.
**Result** TRUE

**Query** Please check the record `RWAAAVPLLVVG` and state if its protein stability index is at or above 0.3.
**Result** FALSE

**Query** Please check the record `VTSVARVVLHLL` and state if its protein stability index is at or above 0.3.
**Result** FALSE

**Query** Please check the record `RGGVRGVRSGRG` and state if its protein stability index is at or above 0.3.
**Result** TRUE

**Query** Please check the record `YLYSSSPWILHG` and state if its protein stability index is at or above 0.3.
**Result** FALSE

###

Tested on: Saccharomyces cerevisiae
Assay: protein stability index of tFT-peptide fusion (C-terminal peptide) (PSI (0-1 scale)); higher = more stable (slower turnover)
Conditions: genetic background: wild type; temperature: 30 C
OUTCOME_MEASURE: protein stability index
Answer as a number with no unit attached.

CHAIN_SEQUENCE | protein stability index
DYARAWRTEVVC | 0.424
SLGGRVAGGWRD | 0.645
DIRRSSMFKPKS | 0.702

The observed protein stability index for `EGLCCGAYFLVF` when tested with Saccharomyces cerevisiae stands at 0.571

The observed protein stability index for `KDIVSEPKVKRE` when tested with Saccharomyces cerevisiae stands at 0.744

The observed protein stability index for `HVCKLAMFQWYF` when tested with Saccharomyces cerevisiae stands at 0.371

The observed protein stability index for `CASGPLQPLPRA` when tested with Saccharomyces cerevisiae stands at 0.753

###

Test system: Saccharomyces cerevisiae
Assay: protein stability index of tFT-peptide fusion (C-terminal peptide) (PSI (0-1 scale)); higher = more stable (slower turnover)
Details: genetic background: wild type; temperature: 30 C
OUTCOME_MEASURE: protein stability index
Answer as a number with no unit attached.

CHAIN_SEQUENCE | TESTED_TARGET | OUTCOME_MEASURE | RECORDED_RESULT
KWFRENDGKKAN [TSC10 C-terminal 12 aa] | Saccharomyces cerevisiae | protein stability index | 0.677

The value of protein stability index measured for the sequence YAELAERKKQEN [COX9 C-terminal 12 aa] turned out to be 0.691

The value of protein stability index measured for the sequence SKTSHNPNEQSV [PDR11 C-terminal 12 aa] turned out to be 0.687

###

System: Saccharomyces cerevisiae
Test: protein stability index of tFT-peptide fusion (C-terminal peptide) (PSI (0-1 scale)); higher = more stable (slower turnover)
Conditions: genetic background: cdc53-1; temperature: 37 C
OUTCOME_MEASURE: protein stability index
Answer as a number with no unit attached.

CHAIN_SEQUENCE | TESTED_TARGET | RECORDED_RESULT
PLCLFPPLLVFL | Saccharomyces cerevisiae | 0.526
FHICTQLIFITC | Saccharomyces cerevisiae | 0.0651
RLRCRVLQWVWG | Saccharomyces cerevisiae | 0.693
VFFRCVCCLSVF | Saccharomyces cerevisiae | 0.408
FIPPRTYCLMIG | Saccharomyces cerevisiae | 0.682

The value of protein stability index measured for the sequence `VFLFSWYIFSVF` turned out to be 0.341

The value of protein stability index measured for the sequence `VGIVWELGCWMG` turned out to be 0.49

The value of protein stability index measured for the sequence `VLLVRIFLCWVC` turned out to be 0.256

The value of protein stability index measured for the sequence `AFPVGFLVGLVV` turned out to be 0.469

The value of protein stability index measured for the sequence `WFAHGLRHFRIL` turned out to be 0.761
